- method: Growth inhibition of human MOLT4 cells at 10 uM after 48 hrs by sulforhodamine B assay relative to control
- Type: functional
- settings: MOLT-4, 48 h, read-out: GI
We begin with a simple list: items and their reported inhibition of growth at 10 µM.
experimental.readout: inhibition of growth at 10 µM (%)

>>> experimental_result("COc1c2occc2c(OC)c2c(=O)c(CN3CCOCC3)c(/C=C/c3ccc(Cl)cc3)oc12")
93
>>> experimental_result("COc1ccc(/C=C2\\Oc3c(c(OC)c4ccoc4c3Br)C2=O)cc1")
67
>>> experimental_result("COc1c(C(=O)/C=C/c2ccccc2)c(O)cc2occc12")
89

----------
- Tested on: COLO 205
- method: Growth inhibition of human COLO205 cells after 48 hrs by coulter counting analysis
- Assay type: functional
- settings: COLO 205, 48 h
Threshold-based label: GI50 under 8 µM gives true, GI50 not under 8 µM gives false.

>>> assigned_class("COc1c2ccoc2c(/C=C/C=O)c2oc(-c3ccccc3)cc(=O)c12")
"false"
>>> assigned_class("C=CCc1c2c(c(OC)c3ccoc13)C(=O)/C(=C/c1ccccc1OC)O2")
"true"
>>> assigned_class("COc1c2occc2c(OC)c2c(=O)c(CN3CCOCC3)c(/C=C/c3ccc(Cl)cc3)oc12")
"true"
>>> assigned_class("COc1ccccc1/C=C/C(=O)c1c(O)cc2occc2c1OC")
"false"
>>> assigned_class("COc1c(C(=O)/C=C/c2ccccc2)c(O)cc2occc12")
"false"
>>> assigned_class("COc1c(C(=O)/C=C/c2ccc(Cl)cc2)c(O)c(Br)c2occc12")
"true"
>>> assigned_class("COc1c2occc2c(OC)c2c(=O)c(CN3CCOCC3)c(/C=C/c3ccc(N(C)C)cc3)oc12")
"true"
>>> assigned_class("C=CCc1c(O)c(C(=O)/C=C/c2ccccc2)c(OC)c2ccoc12")
"true"
>>> assigned_class("C=CCc1c(O)c(C(=O)/C=C/c2ccc(Cl)cc2)c(OC)c2ccoc12")
"true"
>>> assigned_class("COc1ccc(-c2cc(=O)c3c(OC)c4ccoc4c(/C=C/C=O)c3o2)cc1")
"false"

----------
- Tested on: SK-MEL-28
- method: Growth inhibition of human SK-MEL-28 cells after 48 hrs by coulter counting analysis
- Assay type: functional
- settings: SK-MEL-28, 48 h
Mark Y only for GI50 values smaller than 3 µM; exact matches and larger values are N.

>>> assigned_class("C=CCc1c(O)c(C(=O)/C=C/c2ccc(Cl)cc2)c(OC)c2ccoc12")
"Y"
>>> assigned_class("COc1ccc(-c2cc(=O)c3c(OC)c4ccoc4c(/C=C/C=O)c3o2)cc1")
"Y"
>>> assigned_class("COc1c2ccoc2c(/C=C/C=O)c2oc(-c3ccccc3)cc(=O)c12")
"Y"
>>> assigned_class("C=CCc1c2c(c(OC)c3ccoc13)C(=O)/C(=C/c1ccccc1OC)O2")
"N"
>>> assigned_class("COc1c(C(=O)/C=C/c2ccc(Cl)cc2)c(O)c(Br)c2occc12")
"N"
>>> assigned_class("COc1ccccc1/C=C/C(=O)c1c(O)cc2occc2c1OC")
"N"
>>> assigned_class("COc1c(C(=O)/C=C/c2ccccc2)c(O)cc2occc12")
"N"
>>> assigned_class("C=CCc1c(O)c(C(=O)/C=C/c2ccccc2)c(OC)c2ccoc12")
"Y"
>>> assigned_class("COc1c2occc2c(OC)c2c(=O)c(CN3CCOCC3)c(/C=C/c3ccc(Cl)cc3)oc12")
"Y"
>>> assigned_class("COc1c2occc2c(OC)c2c(=O)c(CN3CCOCC3)c(/C=C/c3ccc(N(C)C)cc3)oc12")
"Y"

----------
Reported values of GI50 for individual entries
- System: SNB-19
- method: Growth inhibition of human SNB19 cells after 48 hrs by coulter counting analysis
- Assay type: functional
- settings: SNB-19, 48 h
experimental.readout: GI50

>>> experimental_result("COc1c2ccoc2c(/C=C/C=O)c2oc(-c3ccccc3)cc(=O)c12")
"12 µM"
>>> experimental_result("C=CCc1c(O)c(C(=O)/C=C/c2ccccc2)c(OC)c2ccoc12")
"2.85 µM"
>>> experimental_result("COc1ccccc1/C=C/C(=O)c1c(O)cc2occc2c1OC")
"30.8 µM"
>>> experimental_result("COc1c(C(=O)/C=C/c2ccc(Cl)cc2)c(O)c(Br)c2occc12")
"8.24 µM"
>>> experimental_result("C=CCc1c2c(c(OC)c3ccoc13)C(=O)/C(=C/c1ccccc1OC)O2")
"5.83 µM"
>>> experimental_result("COc1c2occc2c(OC)c2c(=O)c(CN3CCOCC3)c(/C=C/c3ccc(N(C)C)cc3)oc12")
"1.98 µM"
>>> experimental_result("COc1ccc(-c2cc(=O)c3c(OC)c4ccoc4c(/C=C/C=O)c3o2)cc1")
"3.16 µM"
>>> experimental_result("C=CCc1c(O)c(C(=O)/C=C/c2ccc(Cl)cc2)c(OC)c2ccoc12")
"2.85 µM"
>>> experimental_result("COc1c(C(=O)/C=C/c2ccccc2)c(O)cc2occc12")
"7.33 µM"

----------
- Tested on: SF-268
- method: Growth inhibition of human SF268 cells after 48 hrs by coulter counting analysis
- Format: functional
- settings: SF-268, 48 h
Checkbox rule: GI50 lower than 4 µM = TRUE; GI50 not lower than 4 µM = FALSE.

>>> assigned_class("C=CCc1c2c(c(OC)c3ccoc13)C(=O)/C(=C/c1ccccc1OC)O2")
"TRUE"
>>> assigned_class("COc1ccc(-c2cc(=O)c3c(OC)c4ccoc4c(/C=C/C=O)c3o2)cc1")
"FALSE"
>>> assigned_class("COc1c2occc2c(OC)c2c(=O)c(CN3CCOCC3)c(/C=C/c3ccc(Cl)cc3)oc12")
"TRUE"
>>> assigned_class("C=CCc1c(O)c(C(=O)/C=C/c2ccccc2)c(OC)c2ccoc12")
"TRUE"
>>> assigned_class("COc1c2ccoc2c(/C=C/C=O)c2oc(-c3ccccc3)cc(=O)c12")
"FALSE"
>>> assigned_class("COc1ccccc1/C=C/C(=O)c1c(O)cc2occc2c1OC")
"FALSE"
>>> assigned_class("C=CCc1c(O)c(C(=O)/C=C/c2ccc(Cl)cc2)c(OC)c2ccoc12")
"TRUE"
>>> assigned_class("COc1c2occc2c(OC)c2c(=O)c(CN3CCOCC3)c(/C=C/c3ccc(N(C)C)cc3)oc12")
"TRUE"
>>> assigned_class("COc1c(C(=O)/C=C/c2ccc(Cl)cc2)c(O)c(Br)c2occc12")
"TRUE"

----------
- Test system: NCI-H460
- method: Growth inhibition of human NCI-H460 cells after 48 hrs by coulter counting analysis
- Type: functional
- settings: NCI-H460, 48 h
experimental.readout: GI50 (µM)

>>> experimental_result("COc1c(C(=O)/C=C/c2ccc(Cl)cc2)c(O)c(Br)c2occc12")
2.99
>>> experimental_result("COc1c2ccoc2c(/C=C/C=O)c2oc(-c3ccccc3)cc(=O)c12")
11.3
>>> experimental_result("C=CCc1c2c(c(OC)c3ccoc13)C(=O)/C(=C/c1ccccc1OC)O2")
3.46
>>> experimental_result("C=CCc1c(O)c(C(=O)/C=C/c2ccc(Cl)cc2)c(OC)c2ccoc12")
3.2
>>> experimental_result("C=CCc1c(O)c(C(=O)/C=C/c2ccccc2)c(OC)c2ccoc12")
2.79
>>> experimental_result("COc1c(C(=O)/C=C/c2ccccc2)c(O)cc2occc12")
3.02
>>> experimental_result("COc1c2occc2c(OC)c2c(=O)c(CN3CCOCC3)c(/C=C/c3ccc(N(C)C)cc3)oc12")
2.02
>>> experimental_result("COc1ccc(-c2cc(=O)c3c(OC)c4ccoc4c(/C=C/C=O)c3o2)cc1")
4.7
>>> experimental_result("COc1c2occc2c(OC)c2c(=O)c(CN3CCOCC3)c(/C=C/c3ccc(Cl)cc3)oc12")
2.05

----------
Measured GI50 by item
- Tested on: Malme-3M
- method: Growth inhibition of human MALME-3M cells after 48 hrs by coulter counting analysis
- Assay type: functional
experimental.readout: GI50 (µM)

>>> experimental_result("COc1ccc(-c2cc(=O)c3c(OC)c4ccoc4c(/C=C/C=O)c3o2)cc1")
3.79
>>> experimental_result("COc1c2occc2c(OC)c2c(=O)c(CN3CCOCC3)c(/C=C/c3ccc(Cl)cc3)oc12")
2.24
>>> experimental_result("C=CCc1c2c(c(OC)c3ccoc13)C(=O)/C(=C/c1ccccc1OC)O2")
19.8
>>> experimental_result("COc1c(C(=O)/C=C/c2ccc(Cl)cc2)c(O)c(Br)c2occc12")
2.61
>>> experimental_result("COc1ccccc1/C=C/C(=O)c1c(O)cc2occc2c1OC")
18.9
>>> experimental_result("COc1c2ccoc2c(/C=C/C=O)c2oc(-c3ccccc3)cc(=O)c12")
3.47
>>> experimental_result("C=CCc1c(O)c(C(=O)/C=C/c2ccc(Cl)cc2)c(OC)c2ccoc12")
2.74
>>> experimental_result("C=CCc1c(O)c(C(=O)/C=C/c2ccccc2)c(OC)c2ccoc12")
5.8
>>> experimental_result("COc1c2occc2c(OC)c2c(=O)c(CN3CCOCC3)c(/C=C/c3ccc(N(C)C)cc3)oc12")
2.08
